Readings of solubility for the listed compounds
- METHOD_SUMMARY: Solubility of the compound in water
- Assay type: physicochemical
- CONDITIONS_USED: buffer
Respond numerically; units are µM and should not be typed.

A selection of reference data follows.
COMPOUND_STRING: Cc1c2cc(NC(=O)NCCCCCCCCCNC(=O)Nc3ccc4c(c3)c(C)[n+](C)c3ccccc43)ccc2c2ccccc2[n+]1C.O=S(=O)([O-])O.O=S(=O)([O-])O
solubility, µM: 1060
--
COMPOUND_STRING: Cc1c2cc(NC(=O)NCCCCCCNC(=O)Nc3ccc4c(c3)c(C)[n+](C)c3ccccc43)ccc2c2ccccc2[n+]1C.O=S(=O)([O-])O.O=S(=O)([O-])O
solubility, µM: 1240

Let us examine a further case.
solubility reading for Cc1c2cc(NC(=O)NCCNC(=O)Nc3ccc4c(c3)c(C)[n+](C)c3ccccc43)ccc2c2ccccc2[n+]1C.O=S(=O)([O-])O.O=S(=O)([O-])O : 1460

The reported measurements were obtained from ChEMBL document CHEMBL1208667.
